# assayTarget: Glutamate NMDA receptor
# testMethodNotes: Displacement of [3H]CGP-39653 from rat brain NMDA receptor
pKi: −log10 of the molar value.
measuredQuantity: pKi

A: N[C@H](C[C@@H]1CC(C(=O)O)=NO1)C(=O)O (relative stereo)
B: CC1(C)ON=C(C(=O)O)[C@H]1C[C@H](N)C(=O)O (relative stereo)
C: N[C@@H](C[C@@H]1CC(C(=O)O)=NO1)C(=O)O (relative stereo)
D: N[C@@]1(C(=O)O)C[C@@H]2ON=C(C(=O)O)[C@@H]2C1 (racemic)
Exercise: Lab note: order the above by reported pKi, lowest first, highest last. Quick reminder: the answer is the labels in the order asked.
Key: B, A, D, C

====

# assayTarget: Metabotropic glutamate receptor 2 (Rattus norvegicus) (UniProt P31421)
# Sequence (P31421 19-872 limits assumed): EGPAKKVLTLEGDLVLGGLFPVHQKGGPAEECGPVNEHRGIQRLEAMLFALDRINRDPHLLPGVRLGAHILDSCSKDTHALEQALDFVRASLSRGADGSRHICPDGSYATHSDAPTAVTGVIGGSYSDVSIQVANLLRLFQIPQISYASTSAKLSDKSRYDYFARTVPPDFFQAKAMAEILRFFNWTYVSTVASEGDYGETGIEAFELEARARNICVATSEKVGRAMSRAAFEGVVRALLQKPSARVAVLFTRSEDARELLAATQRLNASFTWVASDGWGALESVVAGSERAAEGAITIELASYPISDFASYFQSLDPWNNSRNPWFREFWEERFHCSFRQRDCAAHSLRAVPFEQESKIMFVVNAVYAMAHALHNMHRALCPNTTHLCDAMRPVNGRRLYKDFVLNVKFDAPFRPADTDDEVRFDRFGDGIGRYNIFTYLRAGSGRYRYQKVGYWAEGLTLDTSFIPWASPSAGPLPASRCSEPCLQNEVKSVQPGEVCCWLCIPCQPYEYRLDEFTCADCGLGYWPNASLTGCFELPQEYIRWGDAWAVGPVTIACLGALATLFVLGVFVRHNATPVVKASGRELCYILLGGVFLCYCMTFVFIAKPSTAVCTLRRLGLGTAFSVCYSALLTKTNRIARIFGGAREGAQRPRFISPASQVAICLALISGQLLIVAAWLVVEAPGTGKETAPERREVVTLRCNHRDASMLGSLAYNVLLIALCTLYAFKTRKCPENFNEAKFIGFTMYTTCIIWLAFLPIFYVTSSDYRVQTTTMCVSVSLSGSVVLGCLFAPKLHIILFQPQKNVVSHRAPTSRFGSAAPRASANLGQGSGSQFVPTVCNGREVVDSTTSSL
# testMethodNotes: Activity at rat mGluR2 expressed in CHO cells at 1 mM
# Assay type: cell-based
The source made the active and inactive calls. No cut-off for these calls is given here.
measuredQuantity: Activity

N[C@H](C[C@@H]1CC(C(=O)O)=NO1)C(=O)O (relative stereo): inactive
N[C@@H](C[C@@H]1CC(C(=O)O)=NO1)C(=O)O (relative stereo): inactive
CC1(C)ON=C(C(=O)O)[C@H]1C[C@@H](N)C(=O)O (relative stereo): inactive
CC1(C)ON=C(C(=O)O)[C@H]1C[C@H](N)C(=O)O (relative stereo): inactive

====

# testMethodNotes: Displacement of [3H]kainic acid from rat brain kainate receptor
Reported IC50 values for a set of molecules

N[C@H](C[C@@H]1CC(C(=O)O)=NO1)C(=O)O (relative stereo): > 100 µM
CC1(C)ON=C(C(=O)O)[C@H]1C[C@H](N)C(=O)O (relative stereo): > 100 µM
CC1(C)ON=C(C(=O)O)[C@H]1C[C@@H](N)C(=O)O (relative stereo): > 100 µM
N[C@@]1(C(=O)O)C[C@@H]2ON=C(C(=O)O)[C@@H]2C1 (racemic): > 100 µM

From here, focus on the item given below.
Exercise: What IC50 value was documented for this molecule, N[C@@H](C[C@@H]1CC(C(=O)O)=NO1)C(=O)O (relative stereo) ?
Key: > 100 µM

====

# assayTarget: Glutamate NMDA receptor
# testMethodNotes: Displacement of [3H]CPP from rat brain NMDA receptor
measuredQuantity: Ki (nM)
Give the number; nM is assumed, so skip it.

Exercise: What Ki value was documented for this compound, O=C(O)C1CN(C/C=C/P(=O)(O)O)CCN1 (single isomer, unassigned; (-)) ?
Key: 40

====

# testMethodNotes: Activity at NMDA receptor in rat corticle slice assessed as antagonism of 10 uM NMDA-induced response
# Type: functional
measuredQuantity: pIC50
The quantity pIC50 is defined as the negative base-10 logarithm of the molar concentration.

Exercise: What pIC50 value was documented for this molecule, N[C@@H](C[C@@H]1CC(C(=O)O)=NO1)C(=O)O (relative stereo) ?
Key: 4.85

====

Reported pIC50 values for a set of compounds
# testMethodNotes: Displacement of [3H]AMPA from rat cortex AMPA receptor
pIC50: −log10 of the molar value.

Sample answers from the record:
CC1(C)ON=C(C(=O)O)[C@H]1C[C@@H](N)C(=O)O (relative stereo): < 4.00
CC1(C)ON=C(C(=O)O)[C@H]1C[C@H](N)C(=O)O (relative stereo): 4.92
N[C@@H](C[C@@H]1CC(C(=O)O)=NO1)C(=O)O (relative stereo): < 4.00
N[C@@]1(C(=O)O)C[C@@H]2ON=C(C(=O)O)[C@@H]2C1 (racemic): < 4.00

From here, focus on the item given below.
Exercise: What pIC50 value was documented for this compound, N[C@H](C[C@@H]1CC(C(=O)O)=NO1)C(=O)O (relative stereo) ?
Key: < 4.00

meta.source: ChEMBL document CHEMBL1149302
